Biological target: T1, water-soluble hFcRn (human, UniProt P55899 24-297; P61769 21-119, limits assumed)
T1 construct: also called shFcRn; human FcRn
T1 sequence (P55899 24-297 limits assumed, chain 1 of 2): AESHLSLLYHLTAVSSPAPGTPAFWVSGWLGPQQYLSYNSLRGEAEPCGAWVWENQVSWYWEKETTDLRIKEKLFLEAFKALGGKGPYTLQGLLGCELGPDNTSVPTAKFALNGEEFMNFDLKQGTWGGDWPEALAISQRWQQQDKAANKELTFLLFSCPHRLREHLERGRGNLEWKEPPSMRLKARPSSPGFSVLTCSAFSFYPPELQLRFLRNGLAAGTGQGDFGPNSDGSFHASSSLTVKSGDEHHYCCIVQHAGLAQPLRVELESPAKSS
T1 sequence (P61769 21-119 limits assumed, chain 2 of 2): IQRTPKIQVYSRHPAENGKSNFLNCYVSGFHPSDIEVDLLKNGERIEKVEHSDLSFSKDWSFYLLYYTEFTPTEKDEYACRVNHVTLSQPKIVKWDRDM
Assay: SPR (Proteon XPR36, GLC chip), shFcRn immobilised, antibody as analyte, pH 6.0, 1:1 Langmuir, mean of six runs
Measured parameter: Kd (nM)
Answer with a number only, understood to be in nM.

Return reported Kd; argument: HL161B antibody (antibody, V domains shown, the VL entry runs a few residues into the constant region) VH: QLLLQESGPGLVKPSETLSLTCTVSGGSLSSSFSYWVWIRQPPGKGLEWIGTIYYSGNTYYNPSLKSRLTISVDTSKNHFSLNLSSVTAADTAVYYCARRAGILTGYLDSWGQGTLVTVSS VL: SYVLTQSPSVSVAPGQTARITCGGNNIGSKSVHWYQQKPGQAPVLVVYDDSDRPSGIPERFSASNSGNTATLTISRVEAGDEADYYCQVWDSSSDHVVFGGGTKLTVLGQPKAAPSVTL 0.807

What does the data say about its Kd? Entry: HL161A antibody (antibody, human IgG1, V domains shown) VH: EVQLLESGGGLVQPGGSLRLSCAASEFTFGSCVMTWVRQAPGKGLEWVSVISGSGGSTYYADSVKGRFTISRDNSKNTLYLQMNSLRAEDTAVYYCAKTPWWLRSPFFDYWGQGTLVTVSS VL: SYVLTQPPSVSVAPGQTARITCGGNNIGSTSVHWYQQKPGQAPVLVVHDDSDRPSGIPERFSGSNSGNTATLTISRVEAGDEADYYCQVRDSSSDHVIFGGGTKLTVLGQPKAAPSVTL 0.18

Need Kd of HL161C antibody (antibody, human IgG1, V domains shown) VH: QVQLVQSGAEVKKPGASVKVSCKASGYTFTGCYMHWVRQAPGQGLEWMGRINPNSGGTNYAQKFQGRVTMTRDTSISTAYMDLSRLRSDDTAVYYCARDYSGWSFDYWGQGTLVTVSS VL: DIQMTQSPSSLSASVGDRVTITCRASQGISNYLAWFQQKPGKAPKSLIYAASSLQSGVPSKFSGSGSGTDFTLTISSLQSEDFATYYCQQYDSYPPTFGGGTKVEIKRTVAAPSVFI , thanks. 0.191

Return reported Kd; argument: HL161D antibody (antibody, human IgG1, V domains shown, the VL entry runs a few residues into the constant region) VH: QLQLQESGPGLVKPSETLSLTCTVSGGSISSSSYYWGWIRQPPGKGLEWIGNIYYSGSTYYNPSLMSRVTISVDTSKNQFSLKLSSVTAADTAVYYCARQLSYNWNDRLFDYWGQGTLVTVSS VL: SYELTQPLSVSVALGQTARITCGGNNIGSKNVHWYQQKPGQAPVLVIYRDSNRPSGIPERFSGSNSGNTATLTISRAQAGDEADYYCQVWDSSTVVFGGGTKLTVLGQPKAAPSVTL 1.43
